Test system: T-47D breast
Assay: NCI-60 one-dose screen, 48 h
Settings: 10 µM unless noted
Experimental: Growth inhibition of the T-47D human tumor cell line is measured as a screen for anti-cancer activity. Cells are grown in 96 well plates and exposed to the test compound for 48 hours. Compounds are tested at a single concentration, which is 10^-5 M for most compounds. The reported endpoint is percent growth (GI% or GIPRCNT), where numbers from 0 - 100% represent growth inhibition, and numbers from -100% - 0 represent cell death. For example, a value of 40 represents 60% growth inhibition. […]
About 83,000 compounds went through this panel and 20% of them were active in at least one assay; those are over-represented in the sample as a whole. Activity calls are given as the source filed them. Rule for the calls: active = growth percent below 10; inactive = the rest.
Labels: active, inactive

compound: Cc1cccc(Cc2cnc(NC(=O)/C=C/c3ccco3)s2)c1
testSystem: T-47D breast
classAssignment: inactive
--
compound: CCOC(=O)c1c2c(n3ccc(NC(=O)OC(C)(C)C)cc13)C(=O)c1ncccc1C2=O
testSystem: T-47D breast
classAssignment: active
--
compound: NC(=O)c1ccc[n+]([C@@H]2O[C@H](COP(=O)([O-])OP(=O)(O)OC[C@H]3O[C@@H](n4cnc5c(N)ncnc54)[C@H](O)[C@@H]3O)[C@@H](O)[C@H]2O)c1
testSystem: T-47D breast
classAssignment: inactive
--
compound: OC(c1cccc(-n2ccc(C(F)(F)F)n2)c1)c1cnccc1NC1CCCCCC1 (centres undefined)
testSystem: T-47D breast
classAssignment: inactive
--
compound: CCOC(=O)c1c2ncccc2n2c(=O)n(-c3ccccc3C)nnc12
testSystem: T-47D breast
classAssignment: inactive
--
compound: O=C(O)c1ccc2c(c1Cl)C(=O)c1ccccc1C2=O
testSystem: T-47D breast
classAssignment: inactive
--
compound: Cc1cc(Cl)nc(NCc2cc(Nc3ccnc4cc(Cl)ccc34)ccc2F)n1
testSystem: T-47D breast
classAssignment: inactive
--
compound: CCCCc1ccc(Nc2ccc(Nc3ccc(CCCC)cc3S(=O)(=O)O)c3c2C(=O)c2ccccc2C3=O)c(S(=O)(=O)O)c1
testSystem: T-47D breast
classAssignment: inactive
--
compound: CN1CCN(C(=O)c2c3c(n4ccccc24)C(=O)c2ncccc2C3=O)CC1
testSystem: T-47D breast
classAssignment: inactive
--
compound: O=C(CC(SCc1ccccc1)c1ccccc1)c1ccccc1 (centres undefined)
testSystem: T-47D breast
classAssignment: inactive
--
compound: O=c1[nH]ccc2nc(N3CCC(O)CC3)nc(Nc3ccc(N4CCOCC4)cc3)c12
testSystem: T-47D breast
classAssignment: inactive
--
compound: N#Cc1nc2c(S(=O)(=O)c3ccc(Cl)cc3)c(N)n(Nc3cccc(Cl)c3)c2nc1C#N
testSystem: T-47D breast
classAssignment: inactive
--
compound: Cc1nn(-c2ccccc2)c2nc3c(c(-c4ccc(Cl)cc4)c12)CNC1(CCSCC1)N3
testSystem: T-47D breast
classAssignment: inactive
--
compound: CC/C=C\C/C=C\C[C@H](O)C/C=C1/C(=O)C=C[C@@H]1C/C=C\CCCC(=O)O
testSystem: T-47D breast
classAssignment: inactive
--
compound: Cc1ccc(-c2cc(-c3ccccc3C)[nH]c(=O)c2C#N)s1
testSystem: T-47D breast
classAssignment: inactive
--
compound: O=Cc1c[nH]c2ccc(-c3csc4ccccc34)cc12
testSystem: T-47D breast
classAssignment: inactive
--
compound: O=c1c2cc(F)ccc2sc2c(NCCN3CCCCC3)nc3ccccc3c12
testSystem: T-47D breast
classAssignment: inactive
--
compound: Cc1cccc(NC(=O)CSc2nc3ccccc3[nH]2)c1
testSystem: T-47D breast
classAssignment: inactive
--
compound: COC(=O)[C@]12CC[C@@H](C)[C@H](C)[C@@H]1C1=CC[C@@H]3[C@@]4(C)C(C=O)=C[C@@](C)(COC(C)=O)[C@@H]4C(=O)C[C@@]3(C)[C@]1(C)CC2
testSystem: T-47D breast
classAssignment: inactive
